For each of the variants below, state its self-cleavage.
B1: Hairpin Ribozyme (parent)
chain: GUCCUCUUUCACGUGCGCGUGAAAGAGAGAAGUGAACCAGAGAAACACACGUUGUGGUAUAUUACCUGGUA

# Variants of: B1
# test details: self-cleavage, relative activity (ratio to wild type); higher = more cleavage; co-transcriptional
Numbers only.

A45C U60A
0.174

Please look at the items below and tell me self-cleavage for each one, in order.
1. C37G A43U
2. G13C A43C
3. A28U G57A
4. U8A G13C
5. G1U U60C
6. U7C G32C
7. U20C A43C

result:
0.177
0.0516
0.152
0.687
0
0.141
0.0285

// data source = the RNAGym collection of RNA variant scans (doi:10.7554/elife.80360)
